// provenance: paper PMC4301919

- assayed-system: T1, TRBP-ΔC (UniProt Q15633-2 9-215)
- T1 sequence: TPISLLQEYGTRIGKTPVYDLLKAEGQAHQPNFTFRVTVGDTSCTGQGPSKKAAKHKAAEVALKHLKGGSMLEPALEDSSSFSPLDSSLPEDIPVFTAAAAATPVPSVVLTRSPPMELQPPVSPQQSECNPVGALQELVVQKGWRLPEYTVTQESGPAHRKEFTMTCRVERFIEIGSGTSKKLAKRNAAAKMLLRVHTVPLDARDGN
- assay: EMSA; apparent Kd; nH 2.7; 50 mM sodium cacodylate pH 7.0, 50 mM potassium glutamate, 5% glycerol; EMSA 0.5 pM RNA, 30 min at room temperature, gel 0.25X TBE at 10 C; CD at 10 C with 5-15 uM RNA
- assay-setup: protein: recombinant; label: 5'-32P top strand; duplex with 1x1 A-A mismatch
parameter: Kd (nM)

1. A-mismatch (dsRNA) RNA 1: GGUCAGCACGUAAAUAUUGUCC RNA 2: GGACAGUAUUAACGUGCUGUAC = 1780
